Listed here are molecules together with their documented IC50.
# TARGET ENTITY: menin protein (Homo sapiens (Human))
# PROTOCOL DETAILS: biochemical
# Format: binding
# MEASUREMENT CONDITIONS: FP competitive binding; menin protein 4 nM, FAM-MM2 probe 2 nM; read-out: Menin Binding Affinity IC50
Report as a plain number; the unit nM is understood.

Below, 3 molecules whose answers are already recorded.
[[record]]
molecule = "O=S(=O)(c1ccc(N2CC(CN3CCC(C4(C5CCCC5)NCCc5ccccc54)CC3)C2)cc1)C1CCC1 (stereo not shown) [compound 85]"
endpoint_unit = "nM"
reading = 36

[[record]]
molecule = "O=S(=O)(CC1CCCCC1)c1ccc(N2CC(CN3CCC(C4(C5CCCC5)NCCc5ccccc54)CC3)C2)cc1 (stereo not shown) [compound 93]"
endpoint_unit = "nM"
reading = 52

[[record]]
molecule = "CC(=O)OC[C@H]1CCC[C@@H]1C(C#N)(c1ccccc1)C1CCN(CC2CN(c3ccc(S(=O)(=O)C4CC4)cc3)C2)CC1 (mixture of isomers) [compound 261]"
endpoint_unit = "nM"
reading = 9300


State the recorded IC50 for this entry: CN([C@H]1CCC[C@@H]1C(C#N)(c1ccccc1)C1CCN(CC2CN(c3ccc(S(=O)(=O)C4CC4)cc3)C2)CC1)S(C)(=O)=O (mixture of isomers) [compound 273]
37600

Request: CSC[C@@H]1CCC[C@H]1C(C#N)(c1ccccc1)C1CCN(CC2CN(c3ccc(S(=O)(=O)c4ccncc4)cc3)C2)CC1 (mixture of isomers) [compound 260]
17000

Request: COCC[C@@H]1CCC[C@H]1C(C#N)(c1ccccc1)C1CCN(CC2CN(c3ccc(S(=O)(=O)c4ccnc(C)c4)cc3)C2)CC1 (mixture of isomers) [compound 337]
25800

Request: N#Cc1cc2cc(CN3CCC(C4(C5CCCC5)NCCc5ccccc54)CC3)ccc2[nH]1 (stereo not shown) [compound 114]
32600

====

# TARGET ENTITY: menin protein (Homo sapiens (Human), UniProt O00255)
# Sequence (O00255 whole entry): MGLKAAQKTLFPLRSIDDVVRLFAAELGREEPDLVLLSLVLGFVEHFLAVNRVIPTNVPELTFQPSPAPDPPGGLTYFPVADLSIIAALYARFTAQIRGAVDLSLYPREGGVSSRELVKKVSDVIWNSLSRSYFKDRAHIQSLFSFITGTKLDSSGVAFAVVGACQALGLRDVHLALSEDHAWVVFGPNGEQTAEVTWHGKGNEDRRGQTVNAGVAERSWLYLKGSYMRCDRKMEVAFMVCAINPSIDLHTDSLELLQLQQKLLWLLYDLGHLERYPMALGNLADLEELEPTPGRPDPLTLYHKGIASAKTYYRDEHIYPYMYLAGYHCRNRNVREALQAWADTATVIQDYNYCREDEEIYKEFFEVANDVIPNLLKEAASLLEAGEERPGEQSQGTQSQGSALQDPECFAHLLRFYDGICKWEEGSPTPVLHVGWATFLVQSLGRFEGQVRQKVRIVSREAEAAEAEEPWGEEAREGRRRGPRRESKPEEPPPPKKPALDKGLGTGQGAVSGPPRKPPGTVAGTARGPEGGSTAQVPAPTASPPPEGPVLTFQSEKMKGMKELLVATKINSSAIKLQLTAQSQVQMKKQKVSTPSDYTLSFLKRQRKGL
# PROTOCOL DETAILS: biochemical
# Assay type: binding
# MEASUREMENT CONDITIONS: FP competitive binding; menin protein 4 nM, FAM-MM2 probe 2 nM; read-out: Menin Binding Affinity IC50
MEASURED METRIC: pIC50
Worth noting: pIC50 values are minus log10 of concentrations stated in mol/L.

Below, 5 molecules whose answers are already recorded.
[[record]]
molecule = "CS(=O)(=O)c1ccc(N2CC(CN3CCC(C(C#N)(c4ccccc4)[C@H]4CCC[C@@H]4O)CC3)C2)cc1 (mixture of isomers) [compound 178]"
reading = 5.19

[[record]]
molecule = "CCNC(=O)O[C@@H]1CCC[C@H]1C(C#N)(c1ccccc1)C1CCN(CC2CN(c3ccc(S(=O)(=O)c4ccncc4)cc3)C2)CC1 (mixture of isomers) [compound 214]"
reading = 5.47

[[record]]
molecule = "CN1CCC(C2(C3CCCCN3)CN(C)Cc3ccccc32)CC1 (stereo not drawn) [compound 166]"
reading = 2.85

[[record]]
molecule = "CC(=O)O[C@H]1CCC[C@@H]1C(C#N)(c1ccccc1)C1CCN(CC2CN(c3ccc(S(=O)(=O)c4ccncc4)cc3)C2)CC1 (mixture of isomers) [compound 185]"
reading = 8.15

[[record]]
molecule = "N#CC(c1ccccc1)(C1CCN(CC2CN(c3ccc(S(=O)(=O)c4ccncc4)cc3)C2)CC1)[C@@H]1CCC[C@H]1CO (mixture of isomers) [compound 257]"
reading = 5.34


Field: next molecule
State the recorded pIC50 for this entry: O=S(=O)(c1ccc(N2CC(CN3CCC(C4(C5CCCC5)COCc5ccccc54)CC3)C2)cc1)C1CC1 (stereo not drawn) [compound 38]
6.52
